Compiled from multiple publications: IC50 readings for UniProt:Q99685.
Flag rule - IC50 less than 200 nM flags YES; the remaining entries get NO.

molecule: O=C(c1ccc2c(ccn2-c2ccc(C(F)(F)F)cc2)c1)N1CC(N[C@H]2CCN(C(=O)c3ccccc3)C2)C1
experimental system: UniProt:Q99685
category: YES
--
molecule: O=C(c1cscn1)N1CCN(C2CN(C(=O)c3cc4ccc(C(F)(F)F)nc4[nH]3)C2)CC1
experimental system: UniProt:Q99685
category: NO
--
molecule: O=C1CO[C@H]2CCN(C(=O)N3CCC(=C(c4ccccc4)c4cccc(OCCNc5ccc([N+](=O)[O-])c6nonc56)c4)CC3)C[C@H]2N1
experimental system: UniProt:Q99685
category: YES
--
molecule: O=C(c1ccc2c(c1)c(F)cn2-c1ccc(F)cc1)N1CC(N[C@H]2CCN(C(=O)c3cscn3)C2)C1
experimental system: UniProt:Q99685
category: YES
--
molecule: O=C(c1cccc(-c2ccsn2)c1F)N1CCN2C[C@@](O)(c3ccc(Cl)cc3)CC[C@@H]2C1
experimental system: UniProt:Q99685
category: YES
--
molecule: O=C(Nc1ccc(C(=O)N2CC(N3CCN(C(=O)c4nccs4)CC3)C2)cc1)c1cc(F)ccc1Cl
experimental system: UniProt:Q99685
category: NO
--
molecule: O=C(c1ccc(Sc2cccc(Cl)c2)cc1)N1CC(N2CCN(C(=O)C(F)(F)F)CC2)C1
experimental system: UniProt:Q99685
category: YES
--
molecule: O=C(c1ccc2[nH]c(C3CCCCC3)nc2c1)N1CCN(C2CN(C(=O)c3cscn3)C2)CC1
experimental system: UniProt:Q99685
category: NO
--
molecule: O=C(c1ccccc1)N1CCN(C2CN(C(=O)c3sc4cc(Br)ccc4c3Cl)C2)CC1
experimental system: UniProt:Q99685
category: YES
--
molecule: O=C(c1cccc(-c2cccc(F)c2)c1)N1CC(N2CCN(C(=O)c3cscn3)CC2)C1
experimental system: UniProt:Q99685
category: NO
--
molecule: O=C(c1ccc2c(ccn2-c2ncccn2)c1)N1CC(N[C@H]2CCN(C(=O)c3ccccc3)C2)C1
experimental system: UniProt:Q99685
category: NO
--
molecule: O=C1CO[C@H]2CCN(C(=O)N3CC(Sc4ccc(C(F)(F)F)cc4Cl)C3)C[C@H]2N1
experimental system: UniProt:Q99685
category: YES
--
molecule: O=C1COCC(CCC(=O)N2CC(OCc3ccc(C(F)(F)F)cc3F)C2)N1 (single isomer, unassigned; (-))
experimental system: UniProt:Q99685
category: NO
--
molecule: O=C1N[C@H](CCC(=O)N2CC3(CC(Nc4ccc(C(F)(F)F)nn4)C3)C2)CO1
experimental system: UniProt:Q99685
category: NO
--
molecule: O=C(c1cccc(N2CC(O)C2)c1Cl)N1CCN2C[C@@](O)(c3ccc(F)c(Cl)c3)CC[C@@H]2C1
experimental system: UniProt:Q99685
category: YES
--
molecule: O=C1N[C@H](CCC(=O)N2CC(c3ccc(C4(CO)CC4)cc3)C2)CO1
experimental system: UniProt:Q99685
category: YES
--
molecule: COc1cc(COC2CN(C(=O)N3CC[C@@H]4OCC(=O)N[C@@H]4C3)C2)ccc1F
experimental system: UniProt:Q99685
category: YES
--
molecule: O=C1CO[C@H]2CCN(C(=O)N3CC(C#Cc4ccc(C5CC5)cc4Cl)C3)C[C@H]2N1
experimental system: UniProt:Q99685
category: YES
--
molecule: O=C(c1ccc2c(cnn2-c2ccccc2)c1)N1CC(N[C@H]2CCN(C(=O)c3nccs3)C2)C1
experimental system: UniProt:Q99685
category: NO
--
molecule: O=C1CO[C@H]2CCN(C(=O)N3CC(C#Cc4ccc(C(F)(F)F)cc4)C3)C[C@H]2N1
experimental system: UniProt:Q99685
category: YES
--
molecule: O=C1N[C@H](CCC(=O)N2CC(c3ccc(N4CCC(C(F)(F)F)C4)c(F)c3)C2)CO1 (stereo partly drawn)
experimental system: UniProt:Q99685
category: YES
--
molecule: O=C(c1ccc2[nH]c(C3CCCCC3)nc2c1)N1CC(N2CCN(C(=O)c3nccs3)CC2)C1
experimental system: UniProt:Q99685
category: NO
--
molecule: O=C(O)CNc1cc(C(F)(F)F)ccc1CN1CCN(C(=O)OC(C(F)(F)F)C(F)(F)F)CC1
experimental system: UniProt:Q99685
category: YES
--
molecule: O=C(c1cccc(-c2c[nH]nc2F)c1Cl)N1CCN2C[C@H](c3ccc(F)c(F)c3)OC[C@@H]2C1
experimental system: UniProt:Q99685
category: NO
--
molecule: Cc1nccc(-n2ccc3cc(C(=O)N4CC(N5CCN(C(=O)c6nccs6)CC5)C4)ccc32)n1
experimental system: UniProt:Q99685
category: NO
--
molecule: COc1ccc(-n2ccc3cc(C(=O)N4CC(N5CCN(C(=O)c6ccc[nH]6)CC5)C4)ccc32)cn1
experimental system: UniProt:Q99685
category: YES
--
molecule: O=C1CO[C@H]2CCN(C(=O)N3CC(Oc4ccc(Cl)c(C(F)(F)F)c4)C3)C[C@H]2N1
experimental system: UniProt:Q99685
category: YES
--
molecule: Cc1ncccc1Oc1ccc(C2CN(C(=O)N3CC[C@@H]4OCC(=O)N[C@@H]4C3)C2)cc1
experimental system: UniProt:Q99685
category: YES
--
molecule: COc1cccc(C(=O)N2CCN3C[C@@](O)(c4cccc(F)c4F)OC[C@@H]3C2)c1Cl
experimental system: UniProt:Q99685
category: NO

---

pIC50: −log10 of the molar value.
Compiled from multiple publications: pIC50 readings for MAGL (Homo sapiens, UniProt Q99685).
Use 7 as the dividing line for pIC50, with the line itself on the True side and lower values as False.

compound: Cc1c(C(=O)N2CC(N3CCN(C(=O)c4ccccc4)CC3)C2)sc2ccc(C(F)(F)F)cc12
category: True
//
compound: O=C(NC1CN(C(=O)N2CCN(c3nc4nc(Cl)ccc4o3)CC2)C1)c1ccc(F)cc1Cl
category: False
//
compound: Cn1cc(-c2ccccc2)c2ccc(C(=O)N3CC(N[C@H]4CCN(C(=O)c5cscn5)C4)C3)cc21
category: False
//
compound: O=C(c1ccc2c(c1)[nH]c(=O)n2-c1ccc(F)c(F)c1)N1CC(N2CCN(C(=O)c3cscn3)CC2)C1
category: False
//
compound: O=C(c1cscn1)N1CC[C@H](NC2CN(C(=O)c3cc4ccc(-c5ccc(C(F)(F)F)cc5)cc4s3)C2)C1
category: True
//
compound: O=C(c1ccccc1)N1CC[C@H](NC2CN(C(=O)c3sc4cc(F)ccc4c3C3CCC3)C2)C1
category: False
//
compound: O=C(N1CC(OCc2ccc(C(F)(F)F)cc2F)C1)N1C[C@H]2CCc3nn[nH]c3[C@H]2C1 (single isomer, unassigned)
category: False
//
compound: CC(C)(C)Cn1nncc1-c1ccc(C(=O)N2CCN(c3nc4nc(Cl)ccc4o3)CC2)cc1C(F)(F)F
category: False
//
compound: Cc1c(C(=O)N2CC(N[C@H]3CCN(C(=O)c4nccs4)C3)C2)sc2ccc(-c3ccc(C(F)(F)F)cc3)cc12
category: True
//
compound: CC(C[C@@H]1COC(=O)N1)C(=O)N1CC(OCc2ccc(C(F)(F)F)cc2F)C1 (stereo partly drawn)
category: True
//
compound: CS(=O)(=O)Nc1ccn(C(=O)N2CCN(Cc3ccc(C(F)(F)F)cc3N3CCCC3)CC2)n1
category: True
//
compound: Cn1cc(C(c2ccccc2)C2CCN(C(=O)c3ccc4c(c3)NC(=O)CO4)CC2)cn1 (single isomer, unassigned)
category: True
//
compound: O=C1N[C@H](CCC(=O)N2CC3(CCC(Cc4ccc(OC(F)F)nc4)CC3)C2)CO1
category: True
//
compound: O=C(c1cccc(OC(F)F)c1Cl)N1CCN2C[C@@](O)(c3ccc(C(F)(F)F)cn3)CC[C@@H]2C1 (stereo in doubt)
category: False

---

Compiled from multiple publications: pIC50 readings for MAGL (Homo sapiens).
pIC50: −log10 of the molar value.
quantity name: pIC50

mol smiles: Cc1nc(C)c(-c2ccc(C3CN(C(=O)N4CC[C@@H]5OCC(=O)N[C@@H]5C4)C3)cc2)o1
experimental system: MAGL (Homo sapiens)
quantity name: pIC50
reported: 7.64

mol smiles: O=C1CO[C@H]2CCN(C(=O)N3CC(C#Cc4ccc(Cl)cc4F)C3)C[C@H]2N1
experimental system: MAGL (Homo sapiens)
quantity name: pIC50
reported: 7.92

mol smiles: COc1cc(C(=O)N2CCN(c3nc4nc(Cl)ccc4o3)CC2)ccc1-c1cn(CC(C)(C)C)nn1
experimental system: MAGL (Homo sapiens)
quantity name: pIC50
reported: 8.15

mol smiles: O=C1N[C@H](CCC(=O)N2CC(c3ccc(N4CC(OCC(F)(F)F)C4)cc3)C2)CO1
experimental system: MAGL (Homo sapiens)
quantity name: pIC50
reported: 8.30

mol smiles: O=C(c1ccc2c(ccn2-c2ccc(C(F)(F)F)cc2)c1)N1CC(N[C@H]2CCN(C(=O)c3cscn3)C2)C1
experimental system: MAGL (Homo sapiens)
quantity name: pIC50
reported: 7.80

mol smiles: O=C1CO[C@H]2CCN(C(=O)N3CC(c4ccc(Oc5ncccn5)cc4)C3)C[C@H]2N1
experimental system: MAGL (Homo sapiens)
quantity name: pIC50
reported: 7.12
